- Test system: UACC-62 melanoma
- protocolDescription: NCI-60 one-dose screen, 48 h (100 = growth as untreated, 0 = no growth, -100 = all killed)
- experimentalParameters: 10 µM unless noted
Compounds without any hit were thinned out: in the full panel of roughly 83,000, 20% have a hit.
Give yes when the value for growth is at least 70%. Give no when it is less.

C=C1C(=O)O[C@H]2[C@H]1CC/C(COC(=O)CSCC(=O)OC/C1=C/CC[C@@]3(C)O[C@H]3[C@H]3OC(=O)C(=C)[C@@H]3CC1)=C\CC[C@@]1(C)O[C@@H]21 : no
COc1ccc(CNC(=O)[C@H](O)[C@@H](N)Cc2ccccc2)cc1 : yes
C#C[C@]1(O)CC[C@H]2[C@@H]3CC=C4c5sc(Nc6cc(F)ccc6F)nc5CC[C@]4(C)[C@H]3CC[C@@]21C : no
C[C@H]1[C@H]2[C@H]3CC[C@@H]4[C@@]5(C)CC[C@H](O)C(C)(C)[C@@H]5CC[C@@]4(C)[C@]3(C)CC[C@]23CO[C@]1(C)[C@@H](C(=O)/C=C\c1cccnc1)C3 : no
CC1CN(C2CCCCC2)C(=S)N(c2ccccc2)C1=O (stereo not given) : yes
COc1c(C2CC(=O)Nc3c2c(C)nn3-c2nc3ccccc3[nH]2)cc2c(c1OC)OCO2 (stereo not given) : no
COc1ccc2c(c1)C(C)Cc1c(ncnc1-n1c(C)nc3ccccc31)N2C (stereo not given) : no
NCCCNc1nc2ccccc2c2c(=O)c3cc(C(F)(F)F)ccc3sc12 : yes
CCOC(=O)Nc1ccc(C(=O)/C=C/c2ccccc2)cc1 : yes
COc1ccc(/C=C/c2c(C(=O)/C=C/c3ccc(Cl)cc3)c(C)nc3ccccc23)cc1 : no
COc1ccc(-c2csc(NC(=O)N3CCN(c4cc5c(cc4F)c(=O)c(C(=O)O)cn5C4CC4)CC3)n2)cc1 : no
CC(C)C(=O)Nc1ccc(-c2nc(-c3cccc(OCCN4CCOCC4)c3)c(-c3ccnc(Br)c3)[nH]2)cc1 : no
O=C(COc1ccc(/C=C2\Cc3ccc(Cl)cc3C2=O)cc1)Nc1nc2ccccc2s1 : yes
CCc1cccc2c3c(sc12)C(c1ccc(F)cc1)C(C#N)=C(N)O3 (stereo not given) : no
CCN(CC)CCCNc1nc2ccccc2c2c(=O)c3cc(Cl)ccc3sc12 : yes
COc1ccc(OC)c(/C=C/C(=O)N/N=C/c2ccc(Cl)cc2)c1 : no
O=C(/C=C/c1ccc([N+](=O)[O-])o1)NNC(=O)c1cc2ccccc2cc1O : no
O=C1c2cccc3cccc(c23)C(=O)N1N1C(=O)c2cccc3c(NC4CCCCC4)ccc(c23)C1=O : yes
Cc1cccc2c(=O)c3c(sc12)c(NCc1ccccc1)nc1ccccc13 : yes

* * *

- System: 786-0 renal
- protocolDescription: NCI-60 one-dose screen, 48 h (100 = growth as untreated, 0 = no growth, -100 = all killed)
- experimentalParameters: 10 µM unless noted
About 83,000 compounds went through this panel and 20% of them were active in at least one assay; those are over-represented in the sample as a whole.
Records here are stratified by growth; strata: 0: < 40%; 1: ≥ 40% and < 90%; 2: ≥ 90%

CCOC(=O)Cn1c(=O)c2c(c3ccccc3n2C)n2nnc(-c3ccccc3)c12 : 2
CCOc1ccc2nc(SCc3nc4n(n3)S(=O)(=O)c3ccccc3N4C)sc2c1 : 0
O=C1/C(=C/c2ccc(F)cc2)Sc2c(Br)cccc21 : 2
O=C1CCC/C=C\C[C@H]2C=CC(=O)/C2=C/C[C@H](CCc2cccc(C(F)(F)F)c2)O1 : 0
O=c1c2cc(F)ccc2sc2c(N3CCNCC3)nc3ccc(F)cc3c12 : 1
COc1ccc(/C=C2\Oc3cc(OCCN4CCC(Cc5ccccc5)CC4)ccc3C2=O)cc1OC : 1
Cc1nc2ccccc2c(/C=C/c2ccc(Cl)cc2)c1C(=O)/C=C/c1ccc(C(F)(F)F)cc1 : 0
COc1ccc(CNC(=O)[C@H](O)[C@@H](N)Cc2ccccc2)cc1 : 2
COc1cc2oc(-c3ccc(O)cc3)cc(=O)c2c(O)c1-c1c(OC)cc(O)c2c(=O)cc(-c3ccc(O)cc3)oc12 : 1
COc1nc2ccc(C)cc2cc1-c1nc2c(cnn2-c2ccc(Br)cc2)c(=O)[nH]1 : 1
CN(C)CCS(=O)(=O)Nc1cc(-c2ccc3ncc(C#N)c(Nc4ccc(F)c(Cl)c4)c3c2)cnc1Cl : 0
O=c1c2cc(F)ccc2sc2c(NCCCNCCO)nc3ccc(F)cc3c12 : 1
COc1ccc(-c2nn(C(=O)c3cc(OC)c(OC)c(OC)c3)c3cc(N)ccc23)cc1 : 0
Cc1c(C(=O)/C=C/Nc2c(Cl)cc(S(N)(=O)=O)cc2Cl)sc2nc3ccccc3n12 : 2
CCOC(=O)c1c(C)nc2c(c1N)CC(=O)N2Cc1ccc(F)cc1 : 2
CCCCCCNC(=O)Oc1ccc(/C(=C(\C)c2ccc(Cl)cc2)c2ccc(OCCN(CC)CC)cc2)cc1 : 1
O=C(CSc1nccc(Nc2ccc(S(=O)(=O)Nc3nccs3)cc2)n1)c1ccc(C(F)(F)F)cc1 : 2
CCCSc1nc2ccc(C)cc2cc1/C=[N+](\[O-])c1ccccc1 : 0
CCS(=O)(=O)c1ncnc2nc[nH]c12 : 2
CN(C)c1ccc2nc3ccc(=[N+](C)C)c([N+](=O)[O-])c-3sc2c1 : 0
CCC12CCC[N+]3([O-])CCC4(C(=Nc5ccccc54)C(O)(C(=O)OC)C1)C23 (centres undefined) : 2
NCCNc1nc2ccccc2c2c(=O)c3cc(F)ccc3sc12 : 1
FC(F)(F)c1cc(Nc2ccc3c(OCCCN4CCOCC4)cccc3n2)ccc1Cl : 0
NCCCNc1nc2ccccc2c2c(=O)c3cc(C(F)(F)F)ccc3sc12 : 1
COc1ccc(/C=C/c2c(C(=O)/C=C/c3ccc(Cl)cc3)c(C)nc3ccccc23)cc1 : 0
O=C(N=c1oc2ccccc2cc1-c1cc2ccccc2[nH]1)Nc1ccc(Cl)cc1 : 2
COc1cccc(-c2nc(-c3ccc(NC(=O)c4ccccc4)cc3)[nH]c2-c2ccnc(Br)c2)c1 : 0
COc1ccc(C2NC(=O)C(C#N)c3c2sc2c(F)cccc32)c(OC)c1 (centres undefined) : 1

* * *

- Tested on: UO-31 renal
- protocolDescription: NCI-60 one-dose screen, 48 h
- experimentalParameters: 10 µM unless noted
About 83,000 compounds went through this panel and 20% of them were active in at least one assay; those are over-represented in the sample as a whole. Calls of active or inactive are those of the source. How the source made its calls: active means growth percent below 10; inactive means the rest.
Outcomes: active, inactive

CC(=O)CC[C@H]1C(=O)N[C@@H](C(C)C)C(=O)N[C@@H](Cc2cc(O)cc(F)c2)C(=O)N2CCC[C@H](N2)C(=O)O[C@H](/C(C)=C/C=C/C(=O)OC(C)(C)C)C/C=C/C=C/[C@H](O)[C@H](C)[C@H]1O : inactive
COc1ccc(CN2c3ccccc3Sc3ccccc32)c(F)c1 : inactive
O=C(Nc1ccc(Br)cc1F)c1cc(Br)ccc1O : active

* * *

- Tested on: MALME-3M melanoma
- protocolDescription: NCI-60 one-dose screen, 48 h (100 = growth as untreated, 0 = no growth, -100 = all killed)
- experimentalParameters: 10 µM unless noted
Compounds without any hit were thinned out: in the full panel of roughly 83,000, 20% have a hit. Activity calls are given as the source filed them. How the source made its calls: active means growth percent below 10; inactive means the rest.
Measured growth accompanies every entry in the list below.
measuredProperty: growth

COc1ccc2c(c1OC)C(=O)O[C@H]2[C@H]1c2c(cc3c(c2OC)OCO3)CCN1C : 92.2% (inactive)
COc1cc(/C=C/c2c(C(C)=O)c(C)nc3ccccc23)cc(OC)c1OC : 52.5% (inactive)
O=C(O)CCC/C=C\C[C@H]1C=CC(=O)/C1=C/C[C@@H](O)CCc1cccc(C(F)(F)F)c1 : 79.1% (inactive)
O=c1cc(SCc2ccccc2)nc[nH]1 : 111% (inactive)
Cc1nn(-c2ccccc2)c2c1N=c1s/c(=C\c3ccc(C(F)(F)F)cc3)c(=O)n1CN2 : 83.1% (inactive)
CCCSc1nc2ccc(C)cc2cc1/C=[N+](\[O-])c1ccccc1 : 46.2% (inactive)
CC(C)OC(=O)Nc1ccc(-c2nc(-c3cccc(OCCN4CCOCC4)c3)c(-c3ccnc(Br)c3)[nH]2)cc1 : -5.36% (active)
CN1CCN(c2ccc(-c3cc4c(Nc5ccc(F)c(Cl)c5)ncnn4c3)cc2)CC1 : 28.5% (inactive)
Cc1oc2nc[nH]c(=O)c2c1C(=O)/C=C/c1ccc(Br)cc1 : 24.5% (inactive)
CC1Cc2c(ncn3c(-c4ccc(F)cc4)nnc23)N(C)c2ccccc21 (stereo not drawn) : 37.4% (inactive)
CN1C(=O)N(C)C2Nn3c(s/c(=C\c4ccccc4)c3=O)=NC21 (stereo not drawn) : 101% (inactive)
COC1=C(C)C(=O)c2c(c(CCCl)c3n2CCC3O)C1=O (stereo not drawn) : -55.7% (active)
O=c1ccc(N=Nc2ccc([N+](=O)[O-])cc2)ccc1O : 22.9% (inactive)
